These entries and their values trace back to ChEMBL document CHEMBL3137667.

condition: human, serum, 4383 h;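 also: chronic liver injury confirmed by histopathology or persistently raised serum aminotransferase activity beyond 6 months, value given as the count of indexed literature references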
Property: Hepatotoxicity (chronic liver disease); scope: individual compounds
// response body must contain only the number

Some compounds with known Hepatotoxicity (chronic liver disease) results, for comparison:
O=C(O)CCc1nc(-c2ccccc2)c(-c2ccccc2)o1 [OXAPROZIN]    0
Cn1nnc2c(C(N)=O)ncn2c1=O [TEMOZOLOMIDE]    0
O=C1CN(/N=C/c2ccc([N+](=O)[O-])o2)C(=O)N1CO [NIFURTOINOL]    2
CC(C)c1cccc(C(C)C)c1O [PROPOFOL]    0
CNCCON=c1c2ccccc2ccc2ccccc12 [DEMEXIPTILINE]    0

Shift focus to the following entry.
In: Determine its reported Hepatotoxicity (chronic liver disease): FC(F)OC(F)C(F)(F)F (stereo unspecified)
Out: 0
